Entries and their measured Human AmyR3 potency [EC50 (pM)] follow.
# assay_system: T1, human amylin-3 (a) receptor (human, UniProt P30988 25-474; O60896 24-148)
# T1 sequence (looked up) 1: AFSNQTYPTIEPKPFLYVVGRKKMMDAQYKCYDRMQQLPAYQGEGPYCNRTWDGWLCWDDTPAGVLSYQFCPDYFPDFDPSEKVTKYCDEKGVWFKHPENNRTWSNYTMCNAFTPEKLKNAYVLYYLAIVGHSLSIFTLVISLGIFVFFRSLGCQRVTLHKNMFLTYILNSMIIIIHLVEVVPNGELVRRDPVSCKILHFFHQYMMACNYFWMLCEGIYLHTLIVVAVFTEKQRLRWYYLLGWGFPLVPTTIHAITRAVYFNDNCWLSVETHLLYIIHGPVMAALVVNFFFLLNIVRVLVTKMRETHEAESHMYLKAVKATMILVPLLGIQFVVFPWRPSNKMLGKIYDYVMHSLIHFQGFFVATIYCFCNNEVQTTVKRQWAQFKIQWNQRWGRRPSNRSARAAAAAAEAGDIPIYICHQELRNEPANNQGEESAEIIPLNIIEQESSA
# T1 sequence (looked up) 2: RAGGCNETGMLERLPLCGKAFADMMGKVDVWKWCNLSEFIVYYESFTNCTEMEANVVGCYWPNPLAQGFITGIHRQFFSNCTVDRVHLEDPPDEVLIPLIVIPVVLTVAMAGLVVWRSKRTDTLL
# experiment_notes: cell-based or functional assay
Starred links: 1 amine or outer side, 2 acyl side, 3 side chain; linkers in the order of their positions; H or OH if unused. Non-standard residues stand in square brackets, D forms with d. Groups on a side chain read outwards from the residue. *: point of attachment. Hexadecanoyl(16-SO3H) = O=C(CCCCCCCCCCCCCCCS(=O)(=O)O)*; C20 diacid = O=C(O)CCCCCCCCCCCCCCCCCCC(=O)*; C18 diacid = O=C(O)CCCCCCCCCCCCCCCCC(=O)*; γGlu = O=C(O)[C@H](CCC(=O)[*:2])N[*:1]; Trx = NC[C@H]1CC[C@H](C(=O)O)CC1; AEEA = NCCOCCOCC(=O)O; Aib = CC(C)(N)C(=O)O

binder: Compound 0654 (peptide) peptide: H[Aib]EGTFTSDVSSYLEEQAAREFIAWLVRGRK([AEEA-AEEA-γGlu-Hexadecanoyl(16-SO3H)])GGGGEASELSTAALGRLSAELHELATLPRTETGSGSP-NH2
units_of_measure: pM
Human AmyR3 potency [EC50 (pM)]: 11.3
--
binder: Compound 0662 (peptide) peptide: H[Aib]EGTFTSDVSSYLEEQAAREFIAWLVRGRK([AEEA-AEEA-AEEA-AEEA-γGlu-C18 diacid])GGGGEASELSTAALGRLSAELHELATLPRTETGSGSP-NH2
units_of_measure: pM
Human AmyR3 potency [EC50 (pM)]: 14.6
--
binder: Compound 0539 (peptide) peptide: H[Aib]EGTFTSDVSSYLEGQAAREFIAWLVRGRGQEPK([AEEA-AEEA-γGlu-Trx-C20 diacid])GQAPEASELSTAALGRLSAELHELATLPRTETGSGSP-NH2
units_of_measure: pM
Human AmyR3 potency [EC50 (pM)]: 12.1
--
binder: Compound 0009 (peptide) peptide: H[Aib]EGTFTSDVSSYLEGQAAREFIAWLVRGK([AEEA-AEEA-γGlu-C18 diacid])GEGEGEEASELSTAALGRLSAELHELATLPRTETGSGSP-NH2
units_of_measure: pM
Human AmyR3 potency [EC50 (pM)]: 49.5
